Cited source for all entries: patent US6444617B1

Catalogue of Herbicidal effect Ec values
# System: barnyard grass (Echinochloa crus-galli Beauv.), Ec
# runDescription: Test Example 3: herbicidal effect on upland weeds before emergence
# Format: in vivo
# testContext: dosage 5 kg/ha

INSERT INTO results (chemicalsmiles, testedtarget, observedresult) VALUES
  ('CCc1ccc(Cl)c(CC)c1NC(=O)c1cc2c(nc1C(=O)NC1CCCC1)SCCC2', 'barnyard grass (Echinochloa crus-galli Beauv.), Ec', '5 (Weed-killing rate is 100%.)'),
  ('CCCNC(=O)c1nc2c(cc1C(=O)Nc1c(CC)ccc(Cl)c1CC)CCSC2', 'barnyard grass (Echinochloa crus-galli Beauv.), Ec', '5 (Weed-killing rate is 100%.)'),
  ('CCNC(=O)c1nc2ccccc2cc1C(=O)Nc1c(CC)ccc(Cl)c1CC', 'barnyard grass (Echinochloa crus-galli Beauv.), Ec', '5 (Weed-killing rate is 100%.)'),
  ('CCCNC(=O)c1nc2ncccc2cc1C(=O)Nc1c(CC)ccc(Cl)c1CC', 'barnyard grass (Echinochloa crus-galli Beauv.), Ec', '5 (Weed-killing rate is 100%.)'),
  ('CCCNC(=O)c1nc2nn(C)cc2cc1C(=O)Nc1c(CC)ccc(Cl)c1CC', 'barnyard grass (Echinochloa crus-galli Beauv.), Ec', '5 (Weed-killing rate is 100%.)'),
  ('CCCNC(=O)c1nc2c(cnn2C)cc1C(=O)Nc1c(CC)ccc(Cl)c1CC', 'barnyard grass (Echinochloa crus-galli Beauv.), Ec', '5 (Weed-killing rate is 100%.)');

For this compound ( Cc1c(Cl)cccc1NC(=O)c1cc2c(nc1C(=O)NCC(C)C)SCCC2 ), measured Herbicidal effect Ec is 5 (Weed-killing rate is 100%.)

Looking up CCCNC(=O)c1nc2c(cc1C(=O)Nc1c(CC)ccc(Cl)c1CC)c(C)nn2C , I found its Herbicidal effect Ec recorded as 5 (Weed-killing rate is 100%.)

Looking up Cc1c(Cl)cccc1NC(=O)c1cc2c(C)noc2nc1C(=O)NC1CCCC1 , I see its Herbicidal effect Ec listed as 5 (Weed-killing rate is 100%.)

// CCCNC(=O)c1nc2ncccc2cc1C(=O)Nc1cccc(Cl)c1C : Herbicidal effect Ec value = 5 (Weed-killing rate is 100%.)
